# Test system: Staphylococcus aureus
# testDescription: Antibacterial activity against Staphylococcus aureus assessed as reduction in microbial growth by two fold microdilution method
# Format: functional
endpointLabel: MIC (µg/mL)
Report as a plain number; the unit µg/mL is understood.

O=C(CN1CCN(c2cc3c(cc2F)c(=O)c(C(=O)O)cn3C2CC2)CC1)c1nccs1
1
CC(C)(C)O/N=C(\CN1CCN(c2cc3c(cc2F)c(=O)c(C(=O)O)cn3C2CC2)CC1)c1nccs1
4
COC(=O)CO/N=C(\CN1CCN(c2cc3c(cc2F)c(=O)c(C(=O)O)cn3C2CC2)CC1)c1nccs1
0.25
O=C(O)c1cn(C2CC2)c2cc(N3CCN(C/C(=N\OCc4ccccc4)c4nccs4)CC3)c(F)cc2c1=O
0.25

Q. Give reported MIC for O=C(O)c1cn(C2CC2)c2cc(N3CCNCC3)c(F)cc2c1=O [CIPROFLOXACIN] (Staphylococcus aureus)
A. 2
